Test system: Chinese hamster V79-379 lung fibroblasts
Assay: Uptake of phthalocyanines into V79 cells
Settings: 1 μM, 18 hours
Method: Chinese hamster V79-379 lung fibroblasts were grown in monolayer culture in McCoy's 5A medium (Gibco Laboratories, Grand Island, N.Y.) augmented with 10% calf serum and buffered with 20 mM HEPES (pH 7.4). Total uptake was determined by scraping the phthalocyanine-treated monolayer, collecting the cells on a glass-fiber filter, and extracting the phthalocyanine in ethanol, as previously described by Ramakrishnan, et al., 1989. […]
Decision: Uptake Into V79 Cells, 1 μM compared against 0.6 n Moles/10^6 cells; not below it gives TRUE, below it gives FALSE.

INSERT INTO assay_data (compound, assay_target, class_name) VALUES
  ('CCCCCCCCCCCC[N+](C)(C)CCC[Si](C)(C)[O][Al]1[n]2c3c4ccccc4c2N=C2N=C(N=c4c5ccccc5c([n]41)=NC1=NC(=N3)c3ccccc31)c1ccccc12.[I-]', 'Chinese hamster V79-379 lung fibroblasts', 'TRUE'),
  ('C[Si](C)(CCCN1CCOCC1)O[Si]1(O)n2c3c4ccccc4c2N=C2N=C(N=c4c5ccccc5c(n41)=NC1=NC(=N3)c3ccccc31)c1ccccc12 (stereo not drawn)', 'Chinese hamster V79-379 lung fibroblasts', 'FALSE'),
  ('CCCCN(CCCC)CCC[Si](C)(C)O[Si]1(O)n2c3c4ccccc4c2N=C2N=C(N=c4c5ccccc5c(n41)=NC1=NC(=N3)c3ccccc31)c1ccccc12 (stereo not drawn)', 'Chinese hamster V79-379 lung fibroblasts', 'FALSE'),
  ('CCN(CC)c1ccc2c(c1)Oc1cc(N(CC)CC)ccc1C21c2ccccc2C(=O)N1CCCC[Si](C)(C)O[Si]1(O[Si](C)(C)C(C)(C)C)n2c3c4ccccc4c2N=C2N=C(N=c4c5ccccc5c(n41)=NC1=NC(=N3)c3ccccc31)c1ccccc12 (stereo not drawn)', 'Chinese hamster V79-379 lung fibroblasts', 'FALSE'),
  ('CN1CCN(CCC[Si](C)(C)O[Si]2(O)n3c4c5ccccc5c3N=C3N=C(N=c5c6ccccc6c(n52)=NC2=NC(=N4)c4ccccc42)c2ccccc23)CC1 (stereo not drawn)', 'Chinese hamster V79-379 lung fibroblasts', 'TRUE'),
  ('C[Si](C)(CCCCNC(=S)N[C@@H]1O[C@H](CO)[C@@H](O)[C@H](O)[C@H]1O)O[Si]1(O[Si](C)(C)CCCCNC(=S)N[C@@H]2O[C@H](CO)[C@@H](O)[C@H](O)[C@H]2O)n2c3c4ccccc4c2N=C2N=C(N=c4c5ccccc5c(n41)=NC1=NC(=N3)c3ccccc31)c1ccccc12 [Compound XI, SiPc[OSi(CH3)2(CH2)4NHCSNHC6H111O5]2]', 'Chinese hamster V79-379 lung fibroblasts', 'FALSE'),
  ('C[Si](C)(CCCCNS(C)(=O)=O)O[Si]1(O[Si](C)(C)CCCCNS(C)(=O)=O)n2c3c4ccccc4c2N=C2N=C(N=c4c5ccccc5c(n41)=NC1=NC(=N3)c3ccccc31)c1ccccc12 [Compound VIII, SiPc[OSi(CH3)2(CH2)4NHSO2CH3]2]', 'Chinese hamster V79-379 lung fibroblasts', 'FALSE'),
  ('CN(C)CCC[Si](C)(C)O[Si]1(O[Si](C)(C)CCCN(C)C)n2c3c4ccccc4c2N=C2N=C(N=c4c5ccccc5c(n41)=NC1=NC(=N3)c3ccccc31)c1ccccc12 [Compound XII, SiPc[OSi(CH3)2(CH2)3N(CH3)2]2]', 'Chinese hamster V79-379 lung fibroblasts', 'TRUE'),
  ('CN(C)CCCN(CCCN(C)C)CCC[Si](C)(C)O[Si]1(O)n2c3c4ccccc4c2N=C2N=C(N=c4c5ccccc5c(n41)=NC1=NC(=N3)c3ccccc31)c1ccccc12 (stereo not drawn) [Compound XXVII, HOSiPcOSi(CH3)2(CH2)3N[(CH2)3N(CH3)2]2]', 'Chinese hamster V79-379 lung fibroblasts', 'TRUE'),
  ('C[Si](C)(CCCCN)O[Si]1(O[Si](C)(C)CCCCN)n2c3c4ccccc4c2N=C2N=C(N=c4c5ccccc5c(n41)=NC1=NC(=N3)c3ccccc31)c1ccccc12 [Compound VII, SiPc[OSi(CH3)2(CH2)4NH2]2]', 'Chinese hamster V79-379 lung fibroblasts', 'FALSE');

For the next question, use this compound.
Ask | Hi team, for "CCCCCCCCCCCC[N+](C)(C)CCC[Si](C)(C)O[Si]1(O[Si](C)(C)CCC[N+](C)(C)CCCCCCCCCCCC)n2c3c4ccccc4c2N=C2N=C(N=c4c5ccccc5c(n41)=NC1=NC(=N3)c3ccccc31)c1ccccc12" , is the recorded Uptake Into V79 Cells, 1 μM at or above 0.6 n Moles/10^6 cells?
Reply | FALSE
